Test system: A549-GM130-SQSTM1
experiment: lowest phenotypically active concentration; higher = less potent
run conditions: treatment time: 24 h
Counter-ions that a name gives are not always drawn.
endpoint: lowest phenotypically active concentration (µM)

INSERT INTO measurements (compound, experimental_target, relational_operator, result_number) VALUES
  ('O=C(NOC[C@H](O)CO)c1ccc(F)c(F)c1Nc1ccc(I)cc1F', 'A549-GM130-SQSTM1', '≤', 0.3),
  ('Nc1ncnc2c1c(-c1ccc(Oc3ccccc3)cc1)nn2C1CCCC1', 'A549-GM130-SQSTM1', '=', 9),
  ('CN1CCN(c2ccc(-c3cccc(CN4CCOCC4)c3)cc2NC(=O)c2c[nH]c(=O)cc2C(F)(F)F)CC1', 'A549-GM130-SQSTM1', '=', 9),
  ('CCC1(O)CC2CN(CCc3c([nH]c4ccccc34)C(C(=O)OC)(c3cc4c(cc3OC)N(C)C3C(O)(C(=O)OC)C(OC(C)=O)C5(CC)C=CCN6CCC43C65)C2)C1 (stereo not drawn) [Vinblastine sulfate]', 'A549-GM130-SQSTM1', '≤', 0.3),
  ('N#C/C(=C/c1ccc(-c2cc(Cl)ccc2Cl)o1)C(=O)Nc1cccc2ncccc12', 'A549-GM130-SQSTM1', '=', 9),
  ('O=C(CCCCCCC(=O)Nc1ccc([C@H]2O[C@@H](CSc3nc(-c4ccccc4)c(-c4ccccc4)o3)C[C@@H](c3ccc(CO)cc3)O2)cc1)NO', 'A549-GM130-SQSTM1', '=', 9),
  ('O=c1cc(N2CCOCC2)oc2c(-c3cccc4c3sc3ccccc34)cccc12', 'A549-GM130-SQSTM1', '=', 1),
  ('COc1cc(OC)c2cc(-c3ccncc3)cnc2c1 [DMPQ dihydrochloride]', 'A549-GM130-SQSTM1', '=', 9);

----------
System: A549-TUBA1B-RELA
experiment: phenotypically active (imaging signature differs from DMSO and reproducible) at any of 0.3-9 uM (binary (1 = active, 0 = inactive)); higher = active
run conditions: treatment time: 24 h
Structures can show the parent of a compound that is named as a salt.
endpoint: phenotypically active

INSERT INTO assay_data (compound, endpoint, result_number) VALUES
  ('Cc1cc(/N=N/c2ccc(S(=O)(=O)Nc3ccccn3)cc2)c(N)cc1O', 'phenotypically active', 1),
  ('Fc1ccccc1CNCc1ccc(-c2ccnc3[nH]ccc23)cc1 [OXA 06 dihydrochloride]', 'phenotypically active', 1),
  ('N[C@@H](Cc1ccc(O)c(O)c1)C(=O)O', 'phenotypically active', 0),
  ('Nc1nc(OCC2CCCCC2)c2nc[nH]c2n1', 'phenotypically active', 0),
  ('O=C(CCCCCCC(=O)Nc1cccnc1)NO [Pyroxamide]', 'phenotypically active', 1),
  ('N=C(N)Nc1nc(CSCCC(=N)NS(N)(=O)=O)cs1', 'phenotypically active', 0),
  ('Cc1c[nH]c2ncnc(-c3ccc(NC(=O)N(CCO)c4ccccc4)cc3)c12', 'phenotypically active', 0),
  ('Cc1cnc(C(=O)NCCc2ccc(S(=O)(=O)NC(=O)NC3CCCCC3)cc2)cn1 [glipizide]', 'phenotypically active', 0),
  ('CC(=O)[C@@]1(O)CC[C@H]2[C@@H]3C[C@H](C)C4=CC(=O)C=C[C@]4(C)[C@@]3(F)[C@@H](O)C[C@@]21C', 'phenotypically active', 1);
